Entries with their measured Kd, system BMP-2-inducible protein kinase (Homo sapiens, UniProt Q9NSY1):

Guide cases for Kd, answers given:
{"columns": ["smiles entry", "assayed target", "obs value"],
 "data": [
  ["Oc1ccc(-c2nc(-c3ccncc3)c(-c3ccc(F)cc3)[nH]2)cc1", "BMP-2-inducible protein kinase (Homo sapiens, UniProt Q9NSY1)", "> 10 µM"],
  ["COCC(=O)NC/C=C/c1ccc2ncnc(Nc3ccc(Oc4ccc(C)nc4)c(C)c3)c2c1", "BMP-2-inducible protein kinase (Homo sapiens, UniProt Q9NSY1)", "> 10 µM"]
]}

Now take the following compound into account.
[Q] Suppose we examine the compound NC(=O)c1ccc(-c2nc(-c3ccc4c(c3)OCO4)c(-c3ccccn3)[nH]2)cc1 ; what Kd value has been reported?
[A] > 10 µM

---

pKd reference
# assayed target: UniProtKB Q06187
# Sequence (Q06187 whole entry): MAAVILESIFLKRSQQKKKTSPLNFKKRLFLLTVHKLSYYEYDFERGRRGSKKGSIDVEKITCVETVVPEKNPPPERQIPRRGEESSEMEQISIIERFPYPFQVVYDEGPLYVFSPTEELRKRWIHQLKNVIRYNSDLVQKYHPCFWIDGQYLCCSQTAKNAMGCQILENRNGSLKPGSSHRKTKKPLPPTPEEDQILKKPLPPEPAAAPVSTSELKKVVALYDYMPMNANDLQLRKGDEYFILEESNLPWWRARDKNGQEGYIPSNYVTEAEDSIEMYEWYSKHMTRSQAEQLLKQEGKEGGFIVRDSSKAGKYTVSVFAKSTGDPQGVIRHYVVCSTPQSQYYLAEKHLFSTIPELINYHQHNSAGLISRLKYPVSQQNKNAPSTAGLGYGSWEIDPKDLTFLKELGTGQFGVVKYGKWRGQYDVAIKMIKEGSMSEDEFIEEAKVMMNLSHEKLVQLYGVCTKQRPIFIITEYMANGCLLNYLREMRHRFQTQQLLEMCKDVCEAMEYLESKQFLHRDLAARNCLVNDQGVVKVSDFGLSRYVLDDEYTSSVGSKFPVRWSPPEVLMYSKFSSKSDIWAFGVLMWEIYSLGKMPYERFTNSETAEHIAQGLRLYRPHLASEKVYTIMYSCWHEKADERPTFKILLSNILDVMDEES
pKd: −log10 of the molar value.

Guide cases for pKd, answers given:
{"columns": ["molecule", "assayed target", "pKd"],
 "data": [
  ["CCOc1cc2ncc(C#N)c(Nc3ccc(F)c(Cl)c3)c2cc1NC(=O)/C=C/CN(C)C [PELITINIB]", "UniProtKB Q06187", 5.31],
  ["NC(=O)c1ccc(-c2nc(-c3ccc4c(c3)OCO4)c(-c3ccccn3)[nH]2)cc1 [SB-431542]", "UniProtKB Q06187", "< 5.00"],
  ["COCC(=O)NC/C=C/c1ccc2ncnc(Nc3ccc(Oc4ccc(C)nc4)c(C)c3)c2c1 [CP-724714]", "UniProtKB Q06187", "< 5.00"]
]}

[Q] Suppose we examine the molecule Oc1ccc(-c2nc(-c3ccncc3)c(-c3ccc(F)cc3)[nH]2)cc1 [SB-202190] ; what pKd value has been reported?
[A] < 5.00

---

# assayed target: UniProtKB P07947
# Sequence (P07947 whole entry): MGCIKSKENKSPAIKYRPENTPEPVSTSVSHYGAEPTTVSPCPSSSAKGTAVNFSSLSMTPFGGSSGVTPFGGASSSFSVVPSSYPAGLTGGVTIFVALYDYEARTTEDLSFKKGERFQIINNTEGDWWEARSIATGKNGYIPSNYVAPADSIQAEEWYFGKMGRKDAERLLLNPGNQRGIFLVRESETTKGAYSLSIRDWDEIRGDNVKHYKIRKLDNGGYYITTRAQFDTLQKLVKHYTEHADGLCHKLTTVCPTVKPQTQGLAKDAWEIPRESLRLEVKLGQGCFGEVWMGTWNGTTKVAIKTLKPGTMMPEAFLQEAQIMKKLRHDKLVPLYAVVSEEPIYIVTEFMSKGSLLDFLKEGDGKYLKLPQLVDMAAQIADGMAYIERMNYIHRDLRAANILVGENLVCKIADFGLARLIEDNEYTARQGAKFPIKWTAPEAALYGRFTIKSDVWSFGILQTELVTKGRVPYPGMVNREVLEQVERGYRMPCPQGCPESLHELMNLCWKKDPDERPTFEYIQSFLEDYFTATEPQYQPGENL
pKd: −log10 of the molar value.
pKd reference

{"columns": ["molecule", "pKd"],
 "data": [
  ["Oc1ccc(-c2nc(-c3ccncc3)c(-c3ccc(F)cc3)[nH]2)cc1 [SB-202190]", "< 5.00"],
  ["CCOc1cc2ncc(C#N)c(Nc3ccc(F)c(Cl)c3)c2cc1NC(=O)/C=C/CN(C)C [PELITINIB]", 5.96],
  ["COCC(=O)NC/C=C/c1ccc2ncnc(Nc3ccc(Oc4ccc(C)nc4)c(C)c3)c2c1 [CP-724714]", "< 5.00"],
  ["Nc1nc(Nc2ccc(S(N)(=O)=O)cc2)nn1C(=O)c1c(F)cccc1F [JNJ-7706621]", "< 5.00"]
]}

[Q] Suppose we examine the molecule NC(=O)c1ccc(-c2nc(-c3ccc4c(c3)OCO4)c(-c3ccccn3)[nH]2)cc1 [SB-431542] ; what pKd value has been reported?
[A] < 5.00

---

pKd reference
# assayed target: Mitogen-activated protein kinase 4 (Homo sapiens)
# Sequence (P31152 whole entry): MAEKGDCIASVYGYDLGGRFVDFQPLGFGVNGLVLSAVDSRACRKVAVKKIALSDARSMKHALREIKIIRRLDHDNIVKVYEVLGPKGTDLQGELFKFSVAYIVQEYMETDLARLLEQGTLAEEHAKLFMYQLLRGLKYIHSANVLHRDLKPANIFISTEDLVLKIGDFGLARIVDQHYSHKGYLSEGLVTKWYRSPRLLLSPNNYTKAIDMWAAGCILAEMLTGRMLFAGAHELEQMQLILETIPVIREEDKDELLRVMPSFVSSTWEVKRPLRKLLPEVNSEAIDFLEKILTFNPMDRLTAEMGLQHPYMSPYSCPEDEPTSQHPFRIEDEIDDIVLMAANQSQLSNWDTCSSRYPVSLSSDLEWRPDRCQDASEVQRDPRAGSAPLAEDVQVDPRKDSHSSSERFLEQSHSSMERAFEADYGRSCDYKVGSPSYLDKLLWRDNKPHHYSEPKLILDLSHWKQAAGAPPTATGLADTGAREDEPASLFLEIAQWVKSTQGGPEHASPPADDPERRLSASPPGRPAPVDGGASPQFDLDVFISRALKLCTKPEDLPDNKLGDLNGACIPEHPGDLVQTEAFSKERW
pKd: −log10 of the molar value.

Guide cases for pKd, answers given:
{"columns": ["compound", "assayed target", "pKd"],
 "data": [
  ["CCOc1cc2ncc(C#N)c(Nc3ccc(F)c(Cl)c3)c2cc1NC(=O)/C=C/CN(C)C [PELITINIB]", "Mitogen-activated protein kinase 4 (Homo sapiens)", "< 5.00"],
  ["NC(=O)c1ccc(-c2nc(-c3ccc4c(c3)OCO4)c(-c3ccccn3)[nH]2)cc1 [SB-431542]", "Mitogen-activated protein kinase 4 (Homo sapiens)", "< 5.00"],
  ["Nc1nc(Nc2ccc(S(N)(=O)=O)cc2)nn1C(=O)c1c(F)cccc1F [JNJ-7706621]", "Mitogen-activated protein kinase 4 (Homo sapiens)", 5.80],
  ["COCC(=O)NC/C=C/c1ccc2ncnc(Nc3ccc(Oc4ccc(C)nc4)c(C)c3)c2c1 [CP-724714]", "Mitogen-activated protein kinase 4 (Homo sapiens)", "< 5.00"]
]}

[Q] Suppose we examine the compound Oc1ccc(-c2nc(-c3ccncc3)c(-c3ccc(F)cc3)[nH]2)cc1 [SB-202190] ; what pKd value has been reported?
[A] < 5.00

---

Entries with their measured pKd, system Tyrosine-protein kinase FRK (Homo sapiens):
pKd: −log10 of the molar value.

Guide cases for pKd, answers given:
{"columns": ["smiles entry", "pKd"],
 "data": [
  ["Oc1ccc(-c2nc(-c3ccncc3)c(-c3ccc(F)cc3)[nH]2)cc1", 5.51],
  ["NC(=O)c1ccc(-c2nc(-c3ccc4c(c3)OCO4)c(-c3ccccn3)[nH]2)cc1", "< 5.00"]
]}

[Q] Suppose we examine the compound COCC(=O)NC/C=C/c1ccc2ncnc(Nc3ccc(Oc4ccc(C)nc4)c(C)c3)c2c1 ; what pKd value has been reported?
[A] < 5.00

[Q] Do the same for Nc1nc(Nc2ccc(S(N)(=O)=O)cc2)nn1C(=O)c1c(F)cccc1F please
[A] < 5.00

---

# assayed target: Dual specificity protein kinase CLK2 (Homo sapiens)
# Sequence (P49760 whole entry): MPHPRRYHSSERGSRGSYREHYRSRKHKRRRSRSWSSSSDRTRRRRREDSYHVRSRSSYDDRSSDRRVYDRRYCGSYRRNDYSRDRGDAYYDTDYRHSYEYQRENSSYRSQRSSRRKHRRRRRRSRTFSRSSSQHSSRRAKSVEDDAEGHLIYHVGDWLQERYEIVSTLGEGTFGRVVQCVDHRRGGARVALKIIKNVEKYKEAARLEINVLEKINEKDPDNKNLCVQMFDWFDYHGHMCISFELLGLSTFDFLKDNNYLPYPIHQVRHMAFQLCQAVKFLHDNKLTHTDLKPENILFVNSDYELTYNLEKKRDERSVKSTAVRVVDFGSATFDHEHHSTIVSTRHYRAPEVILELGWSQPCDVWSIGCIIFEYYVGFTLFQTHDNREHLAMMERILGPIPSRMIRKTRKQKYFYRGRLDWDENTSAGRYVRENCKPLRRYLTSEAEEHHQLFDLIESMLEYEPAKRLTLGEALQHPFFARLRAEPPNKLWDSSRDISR
pKd: −log10 of the molar value.
pKd reference

Guide cases for pKd, answers given:
{"columns": ["compound", "pKd"],
 "data": [
  ["Oc1ccc(-c2nc(-c3ccncc3)c(-c3ccc(F)cc3)[nH]2)cc1 [SB-202190]", "< 5.00"],
  ["CCOc1cc2ncc(C#N)c(Nc3ccc(F)c(Cl)c3)c2cc1NC(=O)/C=C/CN(C)C [PELITINIB]", 5.74],
  ["COCC(=O)NC/C=C/c1ccc2ncnc(Nc3ccc(Oc4ccc(C)nc4)c(C)c3)c2c1 [CP-724714]", "< 5.00"]
]}

[Q] Suppose we examine the compound NC(=O)c1ccc(-c2nc(-c3ccc4c(c3)OCO4)c(-c3ccccn3)[nH]2)cc1 [SB-431542] ; what pKd value has been reported?
[A] < 5.00

---

# assayed target: SRSF protein kinase 1 (Homo sapiens)
# Sequence (Q96SB4 whole entry): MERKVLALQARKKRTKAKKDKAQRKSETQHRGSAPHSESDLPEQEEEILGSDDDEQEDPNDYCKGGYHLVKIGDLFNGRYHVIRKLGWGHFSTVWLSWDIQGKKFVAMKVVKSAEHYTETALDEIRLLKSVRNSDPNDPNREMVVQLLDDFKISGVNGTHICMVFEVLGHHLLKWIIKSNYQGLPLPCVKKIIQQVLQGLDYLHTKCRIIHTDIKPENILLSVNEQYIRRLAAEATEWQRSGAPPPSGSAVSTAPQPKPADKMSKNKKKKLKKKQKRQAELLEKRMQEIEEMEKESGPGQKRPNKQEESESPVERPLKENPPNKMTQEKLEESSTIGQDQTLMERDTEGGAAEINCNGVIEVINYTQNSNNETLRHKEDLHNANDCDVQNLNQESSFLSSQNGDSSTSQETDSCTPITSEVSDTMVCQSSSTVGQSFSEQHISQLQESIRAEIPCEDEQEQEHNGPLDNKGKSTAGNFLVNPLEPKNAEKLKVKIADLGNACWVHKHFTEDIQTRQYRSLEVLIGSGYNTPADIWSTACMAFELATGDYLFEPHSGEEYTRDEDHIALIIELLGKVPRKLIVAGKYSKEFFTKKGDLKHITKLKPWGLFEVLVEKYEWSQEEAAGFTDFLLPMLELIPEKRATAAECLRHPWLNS
metric: Kd

{"columns": ["smiles entry", "obs value"],
 "data": [
  ["Oc1ccc(-c2nc(-c3ccncc3)c(-c3ccc(F)cc3)[nH]2)cc1", "> 10 µM"],
  ["NC(=O)c1ccc(-c2nc(-c3ccc4c(c3)OCO4)c(-c3ccccn3)[nH]2)cc1", "> 10 µM"],
  ["COCC(=O)NC/C=C/c1ccc2ncnc(Nc3ccc(Oc4ccc(C)nc4)c(C)c3)c2c1", "> 10 µM"]
]}

[Q] Suppose we examine the compound CCOc1cc2ncc(C#N)c(Nc3ccc(F)c(Cl)c3)c2cc1NC(=O)/C=C/CN(C)C ; what Kd value has been reported?
[A] > 10 µM

---

Entries with their measured pKd, system Tyrosine-protein kinase ABL1 (Homo sapiens, UniProt P00519, Q252H):
pKd: −log10 of the molar value.

Guide cases for pKd, answers given:
{"columns": ["smiles entry", "assayed target", "metric", "obs value"],
 "data": [
  ["Oc1ccc(-c2nc(-c3ccncc3)c(-c3ccc(F)cc3)[nH]2)cc1", "Tyrosine-protein kinase ABL1 (Homo sapiens, UniProt P00519, Q252H)", "pKd", "< 5.00"],
  ["NC(=O)c1ccc(-c2nc(-c3ccc4c(c3)OCO4)c(-c3ccccn3)[nH]2)cc1", "Tyrosine-protein kinase ABL1 (Homo sapiens, UniProt P00519, Q252H)", "pKd", "< 5.00"]
]}

[Q] Suppose we examine the molecule COCC(=O)NC/C=C/c1ccc2ncnc(Nc3ccc(Oc4ccc(C)nc4)c(C)c3)c2c1 ; what pKd value has been reported?
[A] < 5.00

---

pKd reference
# assayed target: Receptor-interacting serine/threonine-protein kinase 2 (Homo sapiens, UniProt O43353)
# Sequence (O43353 whole entry): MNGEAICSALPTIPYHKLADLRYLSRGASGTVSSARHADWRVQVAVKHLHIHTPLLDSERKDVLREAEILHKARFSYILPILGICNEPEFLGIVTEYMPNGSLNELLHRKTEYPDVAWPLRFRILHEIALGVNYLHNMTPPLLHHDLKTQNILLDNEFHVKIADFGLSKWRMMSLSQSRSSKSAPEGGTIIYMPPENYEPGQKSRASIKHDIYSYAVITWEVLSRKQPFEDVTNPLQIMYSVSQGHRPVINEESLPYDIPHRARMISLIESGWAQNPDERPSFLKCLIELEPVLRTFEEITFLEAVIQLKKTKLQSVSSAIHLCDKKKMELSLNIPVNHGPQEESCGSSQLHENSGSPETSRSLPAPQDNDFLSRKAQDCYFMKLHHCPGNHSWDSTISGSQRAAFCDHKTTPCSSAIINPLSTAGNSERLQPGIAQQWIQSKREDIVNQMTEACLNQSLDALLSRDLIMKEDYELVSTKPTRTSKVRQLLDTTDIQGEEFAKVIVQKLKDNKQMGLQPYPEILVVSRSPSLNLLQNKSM
pKd: −log10 of the molar value.

Guide cases for pKd, answers given:
{"columns": ["molecule", "assayed target", "pKd"],
 "data": [
  ["NC(=O)c1ccc(-c2nc(-c3ccc4c(c3)OCO4)c(-c3ccccn3)[nH]2)cc1 [SB-431542]", "Receptor-interacting serine/threonine-protein kinase 2 (Homo sapiens, UniProt O43353)", 5.47],
  ["CCOc1cc2ncc(C#N)c(Nc3ccc(F)c(Cl)c3)c2cc1NC(=O)/C=C/CN(C)C [PELITINIB]", "Receptor-interacting serine/threonine-protein kinase 2 (Homo sapiens, UniProt O43353)", "< 5.00"],
  ["Nc1nc(Nc2ccc(S(N)(=O)=O)cc2)nn1C(=O)c1c(F)cccc1F [JNJ-7706621]", "Receptor-interacting serine/threonine-protein kinase 2 (Homo sapiens, UniProt O43353)", "< 5.00"]
]}

Now take the following molecule into account.
[Q] Suppose we examine the molecule COCC(=O)NC/C=C/c1ccc2ncnc(Nc3ccc(Oc4ccc(C)nc4)c(C)c3)c2c1 [CP-724714] ; what pKd value has been reported?
[A] < 5.00

---

pKd: −log10 of the molar value.
Entries with their measured pKd, system Epidermal growth factor receptor (Homo sapiens, UniProt P00533, L858R):

{"columns": ["smiles entry", "obs value"],
 "data": [
  ["Nc1nc(Nc2ccc(S(N)(=O)=O)cc2)nn1C(=O)c1c(F)cccc1F", "< 5.00"]
]}

[Q] Suppose we examine the molecule NC(=O)c1ccc(-c2nc(-c3ccc4c(c3)OCO4)c(-c3ccccn3)[nH]2)cc1 ; what pKd value has been reported?
[A] < 5.00

These data points were gathered from ChEMBL document CHEMBL1150977.
